These entries and their values trace back to PubChem BioAssay (NCI).

Test system: HT29 colon
Assay: NCI-60 one-dose screen, 48 h (100 = growth as untreated, 0 = no growth, -100 = all killed)
Settings: 10 µM unless noted
Description: Growth inhibition of the HT29 human tumor cell line is measured as a screen for anti-cancer activity. Cells are grown in 96 well plates and exposed to the test compound for 48 hours. Compounds are tested at a single concentration, which is 10^-5 M for most compounds. The reported endpoint is percent growth (GI% or GIPRCNT), where numbers from 0 - 100% represent growth inhibition, and numbers from -100% - 0 represent cell death. For example, a value of 40 represents 60% growth inhibition. […]
About 83,000 compounds went through this panel and 20% of them were active in at least one assay; those are over-represented in the sample as a whole.
I'd appreciate it if you marked entries met when growth is lower than 70% and not met when it is not.

Examples from the recorded data:
[[record]]
compound = "COc1cccc2nc(Nc3cccc(NC(=O)c4ccc(N5CCN(C)CC5)c(C(F)(F)F)c4)c3)ccc12"
class_assignment = "met"

[[record]]
compound = "CC(C)(C)c1ccc(Cn2c(-c3nonc3N)nc3ccccc32)cc1"
class_assignment = "met"

[[record]]
compound = "COc1ccc2nc(NC(=O)/C(=C/c3cc(OC)c(OC)c(OC)c3)c3ccc(OC)c(OC)c3)sc2c1"
class_assignment = "not met"


QUERY: growth strictly < 70% for this compound? O=C1OCC2=C1C(c1ccc(Cl)c(Cl)c1)c1cc3c(cc1N2CCO)CCC3 (configuration not stated)
RESULT: met

QUERY: Is the reported growth for CCN(CC)Cc1cc(Nc2ccnc3cc(Cl)ccc23)cc(-c2ccc(Cl)cc2)c1O strictly below 70%?
RESULT: met

QUERY: Does the reported growth of the following compound sit strictly below 70%? COc1ccc(C2C3=C(COC3=O)N(CCO)c3cc(OC)c(OC)cc32)cc1 (configuration not stated)
RESULT: not met

QUERY: hey, is growth for Clc1ccccc1Nc1nnc(-c2ccncc2)s1 lower than 70% or not?
RESULT: not met

QUERY: Strictly below 70%: is that where growth of C=CCn1c(C)nc2cc(Nc3nc(N4CCOCC4)nc4nc[nH]c34)ccc21 sits?
RESULT: not met

QUERY: Hi there! Is growth for CCCCCCCCCC1=NC(C)(C)CN1C(C)(C)CO below 70%, do you know?
RESULT: met

QUERY: Threshold test, growth < 70%: COc1ccc(C(=O)c2c(N)nc3n2CCCC3)cc1OC
RESULT: not met

----------
tested on: HCT-15 colon; test: NCI-60 one-dose screen, 48 h (100 = growth as untreated, 0 = no growth, -100 = all killed); settings: 10 µM unless noted
This is part of a sample that, as a whole, favours compounds with a hit. Of some 83,000 tested, about 20% had one in any assay.
Reported growth values follow for various molecules
Lab book: enter the figure in %, no units written.

[[record]]
molecule = "COc1ccc2[nH]c(C(=O)OCc3ccc4cccc(O)c4n3)cc2c1"
experimental_readout = "growth"
experimental_result = -43.8

[[record]]
molecule = "CCCCN(CCCC)CCC(O)c1cc2ccc(C(F)(F)F)cc2c2cc(C(F)(F)F)ccc12 (stereo unspecified)"
experimental_readout = "growth"
experimental_result = 27.3


Measured growth, Cc1cc2nc3c(=O)[nH]c(=O)nc-3n(CC=O)c2cc1C : 106

----------
test system: IGROV1 ovarian; assay: NCI-60 one-dose screen, 48 h; conditions: 10 µM unless noted
Compounds without any hit were thinned out: in the full panel of roughly 83,000, 20% have a hit. The source made the active and inactive calls. How the source made its calls: active means growth percent below 10; inactive means the rest.
Respond using exactly one of the listed classes: yes = active, no = inactive

QUERY: Assay result, entry O=C(Nc1ccc(Oc2ccc(NC(=O)Nc3ccccc3Cl)cc2)cc1)Nc1ccccc1Cl — outcome?
RESULT: yes

QUERY: Query: recorded result category for O=C(NCCNC(=O)c1cc(S(=O)(=O)NCCc2ccccc2)c(O)c(O)c1O)c1cc(S(=O)(=O)NCCc2ccccc2)c(O)c(O)c1O in this test
RESULT: no

QUERY: Per the assay record, what outcome was assigned to Oc1ccc(Nc2ncnc3c2sc2ncccc23)cc1 ?
RESULT: no

QUERY: What is the recorded call for this molecule in the test? CCc1ccc2c(c1)N(CCO)C1=C(C(=O)OC1)C2c1cccc(Cl)c1 (stereo not drawn)
RESULT: no

QUERY: Please share the test call associated with COc1ccc2[nH]c(O)c(/C=c3/ccc4c(c3)N=C(c3ccc(F)cc3)N=4)c2c1 .
RESULT: yes

QUERY: Hi, do you know how CSC1=NC(=Nc2c(C)cccc2C)C2(CCC(C(C)(C)C)CC2)N1c1ccc(Cl)cc1 (stereo not drawn) came out in this test?
RESULT: no

----------
tested on: T-47D breast; experiment: NCI-60 one-dose screen, 48 h; settings: 10 µM unless noted
The panel holds about 83,000 compounds, 20% with a hit somewhere; the sample as a whole holds those more often. Activity calls are given as the source filed them. How the source made its calls: active means growth percent below 10; inactive means the rest.
Form entry, call: pick from active, inactive

The following compounds have reported results that may help.
[[record]]
compound = "CSC(=S)N/N=C(\\C)c1ccccn1"
class_assignment = "inactive"

[[record]]
compound = "O=C(C=P(c1ccccc1)(c1ccccc1)c1ccccc1)CCl"
class_assignment = "active"

[[record]]
compound = "CCCCn1c(C)nc2ccc(Nc3nc(Cl)nc4nc[nH]c34)cc21"
class_assignment = "inactive"

[[record]]
compound = "COc1ccc2c(c1)CCCC21C(=O)Nc2ccccc21 (stereo unspecified)"
class_assignment = "inactive"

[[record]]
compound = "O=C(CSc1ccc(Cl)cc1)Nc1ccc(-c2nc3ccccc3s2)c(Cl)c1"
class_assignment = "inactive"


Now turn to the next compound.
QUERY: Recorded call for CC1=NOCC(=O)N1 ?
RESULT: inactive

----------
test system: IGROV1 ovarian; experiment: NCI-60 one-dose screen, 48 h; details: 10 µM unless noted
About 83,000 compounds went through this panel and 20% of them were active in at least one assay; those are over-represented in the sample as a whole. Active and inactive are the calls of the source. How the source made its calls: active means growth percent below 10; inactive means the rest.
// classify into yes = active, no = inactive

Sample answers from the record:
[[record]]
compound = "COc1cc2c(cc1I)-c1c(cc(OC)c(OC)c1OC)CC[C@@H]2NC(C)=O"
class_assignment = "yes"

[[record]]
compound = "O=C(NC1CC1)c1ccc(-c2nc3ccc4[nH]ncc4c3c3c2CCCC3)cc1"
class_assignment = "no"

[[record]]
compound = "COc1cc(/C=C/C(=O)c2ccc(NC(=O)CSc3nnc(-c4ccc(Cl)cc4)n3-c3ccccc3)cc2)cc(OC)c1OC"
class_assignment = "no"

[[record]]
compound = "COc1c(B(O)O)cccc1-c1nc2c(F)cc3n[nH]c(C)c3c2c2c1CCCC2"
class_assignment = "no"

[[record]]
compound = "C#CC[C@@H]1C[C@]2(C)[C@H]3CC=C4[C@H]5[C@@H](C)[C@H](C)CC[C@]5(C(=O)NCCCN5CCN(CCCN)CC5)CC[C@@]4(C)[C@]3(C)CC[C@H]2C(C)(C)[C@H]1OC(C)=O"
class_assignment = "yes"


Proceed to the following item.
QUERY: Entry CCN(CC)c1ccc(C(=N)c2ccc(N(C)C)cc2)cc1 : call = ?
RESULT: yes

----------
growth values by entry
system: UACC-257 melanoma; assay: NCI-60 one-dose screen, 48 h (100 = growth as untreated, 0 = no growth, -100 = all killed); conditions: 10 µM unless noted
The panel holds about 83,000 compounds, 20% with a hit somewhere; the sample as a whole holds those more often.
# output: bare number, implied unit %

In plain terms, COc1cc(-c2nc(-c3nc4cc(C(=O)c5ccccc5)ccc4[nH]3)cc3c2[nH]c2ccccc23)cc(OC)c1OC has a documented growth of 109

For record Cc1cc(-c2nnc(/C=C/c3ccc4c(c3)OCO4)o2)n[nH]1 the listed growth is 78.1

Entry under test: O=C(O)Cn1ccc2ccccc21 . Its growth was 113

The value of growth measured for the compound CCCCCCCCCCCC1=NC(C)(C)CN1C(C)(C)CO turned out to be -23.4

# compound Cc1nc2ccc(Nc3nc(NCCN4CCOCC4)nc(Nc4ccc(F)cc4)n3)cc2n1Cc1ccccc1 ; its growth = -65.3

The reported value for CN(C)c1ccc(Nc2c3ccccc3nc3ccccc23)cc1 in terms of growth is 18.3

So for COc1cccc2nc(Nc3cccc(NC(=O)c4cc(N5CCOCC5)cc(C(F)(F)F)c4)c3)ccc12 , the logged growth turned out to be 57.1

----------
system: HCT-116 colon; assay: NCI-60 one-dose screen, 48 h (100 = growth as untreated, 0 = no growth, -100 = all killed); details: 10 µM unless noted
About 83,000 compounds went through this panel and 20% of them were active in at least one assay; those are over-represented in the sample as a whole.
Label label 1 when growth is strictly below 90%; at or above that, label label 0.

Example entries and their recorded answers appear below.
[[record]]
compound = "COc1ccc(/C=C(/C(=O)N2CCN(c3ccccc3)CC2)c2cc(OC)c(OC)c(OC)c2)cc1N"
class_assignment = "label 1"

[[record]]
compound = "C=C(C)[C@@H]1CC[C@]2(C)[C@H](CC=C3[C@@H]4C[C@](C)(C(=O)N5CCN(C)CC5)CC[C@]4(C)CC[C@]32C)[C@@]1(C)CCC#N"
class_assignment = "label 1"

[[record]]
compound = "Clc1cn2cc(-c3ccc(Cl)c(Cl)c3Cl)nc2s1"
class_assignment = "label 0"


QUERY: Hello, is growth of the following compound strictly smaller than 90%? NCCCOc1cc2ccccc2cc1C(=O)NCCCOc1cc2ccccc2cc1C(=O)Nc1ccc(Cl)cc1O
RESULT: label 1

QUERY: Is the reported growth for Cc1cc(C)c2c(n1)sc1c(Nc3ccc(O)cc3)ncnc12 strictly below 90%?
RESULT: label 1

QUERY: Item COc1ccc(/C(=C\c2cc(OC)c(OC)c(OC)c2)C(=O)Nc2nc3ccc(Cl)cc3s2)cc1 : growth beneath 90%, strictly?
RESULT: label 1

QUERY: Decide: growth of Cc1cc(C)cc(CCCCCCCCCCCCCCCCCC(=O)O)c1 strictly below 90%?
RESULT: label 0

QUERY: Report whether reported growth is lower than 90% (strictly) for CCOC(=O)c1ccccc1SC(C[N+](=O)[O-])c1ccccc1 (centres undefined)
RESULT: label 1

QUERY: State whether 90% exceeds growth recorded for C=CCN(CCOC(=O)c1ccc([N+](=O)[O-])cc1)CCOC(=O)c1ccc([N+](=O)[O-])cc1 .
RESULT: label 0
